// reported GI50 per item
# Tested on: PANC-1
# measurement-notes: SRB colorimetric assay of cell growth and viability, PANC-1
# Type: cell-based, human
# condition-context: 48 hours exposure
// note: answer is a bare numeric in nM

For orientation, consider the following solved cases.
C/C=C1\NC(=O)[C@H](Cc2ccccc2)NC(=O)[C@@H](C(C)C)NC(=O)[C@@H]([C@@H](C)CC)NC(=O)[C@H](NC(=O)[C@H](NC(=O)[C@H](CCCN)NC(=O)[C@H]2CCCN2C(=O)[C@H](NC(=O)[C@@H](NC(=O)[C@@H](NC(=O)[C@H](NC(=O)CCCCCCC)C(C)C)[C@@H](C)O)C(C)C)C(C)C)[C@@H](C)CC)[C@@H](C)OC(=O)[C@H](C(C)C)NC1=O [Compound 18, [Oct^14]-KF] : 2010
C/C=C1\NC(=O)[C@H](Cc2ccccc2)NC(=O)[C@@H](C(C)C)NC(=O)[C@@H]([C@@H](C)CC)NC(=O)[C@H](NC(=O)[C@H](NC(=O)[C@H](CCCN)NC(=O)[C@H]2CCCN2C(=O)[C@H](NC(=O)[C@@H](NC(=O)[C@@H](NC(=O)[C@H](NC(=O)CC[C@H](C)CC)C(C)C)[C@@H](C)O)C(C)C)C(C)C)[C@@H](C)CC)[C@@H](C)OC(=O)[C@H](C(C)C)NC1=O [Compound 16, [(4R)-MeHex^14]-KF] : 4700
C/C=C1\NC(=O)[C@H](Cc2ccccc2)NC(=O)[C@@H](C(C)C)NC(=O)[C@@H]([C@@H](C)CC)NC(=O)[C@H](NC(=O)[C@H](NC(=O)[C@H](CCCN)NC(=O)[C@H]2CCCN2C(=O)[C@H](NC(=O)[C@@H](NC(=O)[C@@H](NC(=O)[C@@H](C)NC(=O)CCCC(C)C)[C@@H](C)O)C(C)C)C(C)C)[C@@H](C)CC)[C@@H](C)OC(=O)[C@H](C(C)C)NC1=O [Compound 34, [D-Ala^13]-KF] : 1280
C/C=C1\NC(=O)[C@H](Cc2ccccc2)NC(=O)[C@@H](C(C)C)NC(=O)[C@@H]([C@@H](C)CC)NC(=O)[C@H](NC(=O)[C@H](NC(=O)[C@H](CCCN)NC(=O)[C@H]2CCCN2C(=O)[C@H](NC(=O)[C@@H](NC(=O)[C@@H](NC(=O)[C@H](NC(=O)Cc2ccc(C(F)(F)F)cc2)C(C)C)[C@@H](C)O)C(C)C)C(C)C)[C@@H](C)CC)[C@@H](C)OC(=O)[C@H](C(C)C)NC1=O [Compound 25, [p-CF3PhAc^14]-KF] : 1580

Now examine the next entry.
Task: Give GI50 for C/C=C1\NC(=O)[C@H](Cc2ccccc2)NC(=O)[C@@H](C(C)C)NC(=O)[C@@H]([C@@H](C)CC)NC(=O)[C@H](NC(=O)[C@H](NC(=O)[C@H](CCCN)NC(=O)[C@H]2CCCN2C(=O)[C@H](NC(=O)[C@@H](NC(=O)[C@@H](NC(=O)[C@@H](CCC(N)=O)NC(=O)CCCC(C)C)[C@@H](C)O)C(C)C)C(C)C)[C@@H](C)CC)[C@@H](C)OC(=O)[C@H](C(C)C)NC1=O [Compound 40, [D-Gln^13]-KF]
Output: 130
